Hello, the source for this data is the supplement of paper PMC8728848, in case you need it.

System tested: Gal(b1-4)GlcNAc(b1-2)Man(a1-3)[Man(a1-6)]Man(b1-4)GlcNAc(b1-4)GlcNAc
Procedure text: glycan array binding signal (z-score within array); higher = stronger binding
Test conditions: glycan notation: IUPAC condensed, linker removed
Shown is part of a subset that was picked to be rich in the strongest signals.

# Binder, glycan array binding signal (z-score)
records = [
    ("PfulAvr4 (Pseudocercospora fuligena) (protein) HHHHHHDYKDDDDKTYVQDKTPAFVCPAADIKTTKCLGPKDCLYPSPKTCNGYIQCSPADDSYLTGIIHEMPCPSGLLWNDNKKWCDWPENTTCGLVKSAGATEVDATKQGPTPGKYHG", 1.71),
    ("SpnanA (Streptococcus pneumoniae), P62575 (protein) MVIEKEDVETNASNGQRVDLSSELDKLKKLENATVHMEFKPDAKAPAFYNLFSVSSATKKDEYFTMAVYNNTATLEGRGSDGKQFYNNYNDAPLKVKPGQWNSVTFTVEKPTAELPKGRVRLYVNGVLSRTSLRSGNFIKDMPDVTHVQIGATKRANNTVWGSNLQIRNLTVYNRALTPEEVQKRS", 0.687),
    ("SAOUHSC 02783 (Staphylococcus aureus), Q5HD69 (protein) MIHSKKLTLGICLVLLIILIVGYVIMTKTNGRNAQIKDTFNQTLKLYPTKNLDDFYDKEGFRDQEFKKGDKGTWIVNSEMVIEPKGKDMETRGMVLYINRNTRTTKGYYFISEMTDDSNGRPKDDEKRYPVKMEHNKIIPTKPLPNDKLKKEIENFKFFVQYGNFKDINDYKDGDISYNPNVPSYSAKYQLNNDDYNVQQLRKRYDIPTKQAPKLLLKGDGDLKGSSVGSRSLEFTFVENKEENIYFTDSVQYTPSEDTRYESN", 5.18),
    ("Epa3to1 (Candida glabrata) (protein) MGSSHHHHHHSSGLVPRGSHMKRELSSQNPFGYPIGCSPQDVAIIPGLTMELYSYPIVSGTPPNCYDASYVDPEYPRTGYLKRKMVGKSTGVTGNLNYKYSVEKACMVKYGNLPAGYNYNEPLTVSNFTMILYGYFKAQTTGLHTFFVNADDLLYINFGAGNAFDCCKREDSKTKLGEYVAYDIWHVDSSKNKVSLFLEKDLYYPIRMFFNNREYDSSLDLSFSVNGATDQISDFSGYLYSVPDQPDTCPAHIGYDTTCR", 3.23),
    ("PfulAvr4 2 (Pseudocercospora fuligena) (protein) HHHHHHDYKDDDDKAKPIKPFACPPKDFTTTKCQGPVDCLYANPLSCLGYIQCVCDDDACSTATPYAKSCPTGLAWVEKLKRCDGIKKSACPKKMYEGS", 9.66),
    ("Als3-2 (Candida albicans) (protein) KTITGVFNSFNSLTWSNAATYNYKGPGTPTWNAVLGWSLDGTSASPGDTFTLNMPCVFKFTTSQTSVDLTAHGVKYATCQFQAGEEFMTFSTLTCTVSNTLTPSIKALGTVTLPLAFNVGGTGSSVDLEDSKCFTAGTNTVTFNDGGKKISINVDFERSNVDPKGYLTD", 0.449),
]
